Hello, the source for this data is PubChem BioAssay (NCI), in case you need it.

System: RPMI-8226 leukemia
Experiment: NCI tumour cell line growth inhibition, 48 h
MEASURE: TGI

Some entries whose results are on file:
c1ccc2c(c1)n1nnnc1c1nnnn21 | > 100 µM
COc1ccc2c(c1)CCC1C2CCC2(C)C(NC(=O)CCCCC3CCSS3)CCC12 (centres undefined) | > 100 µM
Nc1c(-c2ccccc2)c2ccc([N+](=O)[O-])cc2c(=O)n1-c1cccc(C(=O)O)c1 | > 100 µM
CCOC1OC(C)(C=C(C#N)C#N)CCC1C (centres undefined) | 70.6 µM
CN(C)c1ccc(/C=C2\N=C(c3ccccc3)N(c3nc4ccc(Sc5ccccc5)cc4[nH]3)C2=O)cc1 | 71.4 µM
COc1cc2c(cc1OC)C(C1CC1)ON(C)CC2 (centres undefined) | > 100 µM

Would you mind giving TGI for every molecule in the list below?
1. CNC1CC(n2cc(C)c(=O)[nH]c2=O)OC1CO (centres undefined)
2. COc1cc(COC(=O)N(C)[C@@H](Cc2ccccc2)C(=O)O)c([N+](=O)[O-])cc1OC
3. NCC1OC(OC2C(N)CC(N)C(O)C2OC2OC(CO)C(O)C2O)C(N)C(O)C1O (centres undefined)
4. NCC[PH+](c1ccccc1)c1ccccc1.NCC[PH+](c1ccccc1)c1ccccc1.[Cl-].[Pt+4]
5. COc1cc([C@H]2c3cc4c(cc3[C@H](NCc3ccc(F)cc3)C3COC(=O)[C@H]32)OCO4)cc(OC)c1O (some centres undefined)
6. CNc1ccc(CSc2ccc(C)cc2)cc1

output:
["> 100 µM", "> 100 µM", "> 100 µM", "> 65.2 µM", "18.2 µM", "21.6 µM"]

Quick one: give me TGI for each item below, same order please.
1. N=C(N)c1ccc(N=Nc2c(O)c(C(=O)Nc3ccccc3)cc3ccccc23)cc1
2. Cc1ccc(-n2cc(/C(N)=N/O)c3ccccc3c2=O)cc1
3. Oc1ccccc1/C=N/c1nc(-c2ccccc2)cs1
4. CCOC(=O)c1c(-c2ccc(Cl)cc2)c(C#N)c(=S)n(C2OC(COC(C)=O)C(OC(C)=O)C(OC(C)=O)C2OC(C)=O)c1C (centres undefined)
5. CC1=NN(c2cc(Cl)c(S(=O)(=O)O)cc2Cl)C2(C1)C(Cl)C(=O)N2c1nc2ccccc2s1 (centres undefined)

output:
["77.7 µM", "> 100 µM", "> 100 µM", "> 100 µM", "> 100 µM"]

For every item below, please supply its TGI.
1. CCOc1ccc(N=Nc2c(-c3ccccc3)nn(C(=O)CC(=O)Nc3ccccc3Cl)c2-c2ccccc2)cc1
2. c1ccc2[nH]c(-c3cscn3)nc2c1

output:
1. > 100 µM
2. > 100 µM

====

Tested on: MDA-MB-435
Assay: NCI tumour cell line growth inhibition, 48 h
What TGI was measured for each of the following?

Provide each entry's TGI from the list below.
1. COC(=O)[C@]1(c2cc3ccccc3[nH]2)CC2CNC1C1OC(C)(C)OC21 (stereo partly specified)
2. CC(C)(C)c1cc(C(C)(C)C)c2sc(=O)oc2c1O

output:
["> 100 µM", "25.6 µM"]

Hi there! I need TGI for each item below, if you can.
1. Cc1ncc([N+](=O)[O-])n1CCOc1ccc(C(=O)/C=C/c2ccc(C(F)(F)F)cc2)cc1
2. FC(F)(Sc1ncccn1)c1nc2ccccc2o1

output:
13.9 µM
> 100 µM

Please go through the list and note TGI for each molecule.
1. CC(C)(C)OC(=O)N1CCC2(CC1)C(=O)NCN2c1ccccc1
2. C[N+](C)([O-])C12CC3CC(CC(C3)C1)C2
3. Fc1nc(Sc2ncnc3nc[nH]c23)nc(-c2c3ccccc3c3sc4ccccc4n23)n1

output:
["> 100 µM", "> 100 µM", "> 100 µM"]

Provide TGI for all items below, preserving their order.
1. CNc1ccc(CSc2ccc(C)cc2)cc1
2. C=C(CCC(=O)N(CCc1c[nH]c2ccccc12)C(=O)c1ccccc1CSCC)C(=O)OC
3. c1ccc(-c2nc3ccccc3[nH]2)c(OCCCCCOc2ccccc2-c2nc3ccccc3[nH]2)c1
4. COc1cc(/C=C/C(=O)/C=C/c2ccc(-n3ccnc3)cc2)ccc1O
5. O=C(CN1CCCC1)Nc1ccc2c(c1)C1Oc3ccccc3CC1CO2 (stereo unspecified)
6. CC(C)OC(=O)c1cc(NC(=S)OC(C)C)ccc1Cl
7. CCOC(=O)CC1C(C(=O)OCC)=Cn2c([nH]c3cccc4cccc2c43)=C1C(=O)OCC (stereo unspecified)

output:
1. > 100 µM
2. > 100 µM
3. 29.3 µM
4. 5.14 µM
5. 55.4 µM
6. 31.4 µM
7. > 100 µM

Items follow; give TGI for each.
1. CCOC(=O)CC1(N)CC2c3ccccc3OC(=O)C2C(=O)N1 (stereo unspecified)
2. COC1CCC(OS(C)(=O)=O)C(C)O1 (stereo unspecified)
3. CC(=O)OCCc1cc2ccccc2oc1=O
4. CSC1=C(C)C(/C=N/Nc2ccc([N+](=O)[O-])cc2)=C(C)N(c2ccccc2)S1(=O)=O
5. O=[N+]([O-])C(/C=C(\Cl)[N+](=O)[O-])=C(Nc1ccccc1)Nc1ccccc1
6. CCOC(=O)/C(=C/c1cn(C(C)=O)c2ccccc12)P(=O)(OC)OC
7. N#Cc1cc2c(n(C3OC(CO)C(O)C(O)C3O)c1=S)CCC2 (stereo unspecified)

output:
1: > 100 µM; 2: > 10 µM; 3: > 100 µM; 4: > 100 µM; 5: 17.4 µM; 6: > 100 µM; 7: > 100 µM

Go through the list and state TGI for each entry.
1. CC(C)(C)OC(=O)CC(S(=O)(=O)c1ccccc1)S(=O)(=O)c1ccccc1
2. Cc1cc(=O)[nH]c2c1C(=O)c1c(C)cc(=O)n(C)c1C2=O

output:
26.7 µM
0.0275 µM

Items follow; give TGI for each.
1. CCOC(=O)C(NC(=O)c1ccccc1)(Nc1ccc(S(=O)(=O)Nc2cc(C)on2)cc1)C(F)(F)F (stereo unspecified)
2. COc1cc(-c2cc(OC)c(OC)c3ccc(Br)cc23)c2cc(Br)ccc2c1OC
3. CCOc1ccc(Nc2nc(N)nc(N)c2N=O)cc1
4. COc1ccccc1-c1cc(=O)c2cccnc2[nH]1
5. N=C(N)c1ccc(N=Nc2c(O)c(C(=O)Nc3ccccc3)cc3ccccc23)cc1
6. COc1ccc2c(c1)CCC1C2CCC2(C)C(NC(=O)CCCCC3CCSS3)CCC12 (stereo unspecified)

output:
["> 100 µM", "46.1 µM", "> 100 µM", "60.5 µM", "> 100 µM", "> 100 µM"]

Please look at the items below and tell me TGI for each one, in order.
1. CC1OC23CCCCC2C(C#N)(C#N)C1(C#N)C(=N)O3 (stereo unspecified)
2. CCOC(=O)CCC(C(=O)OCC)n1nnc2cc(Nc3c(C)[n+]([O-])c4cc(Cl)ccc4[n+]3[O-])ccc21 (stereo unspecified)

output:
50.9 µM
> 100 µM

====

System: NCI-H23 lung
Assay: NCI tumour cell line growth inhibition, 48 h
Returns one of Fulfilled or Not fulfilled; Fulfilled when TGI is >= 50 µM.

# count of solved cases: 5
CN1CCN(Cc2ccc(C(=S)Nc3ccccc3)s2)CC1 | Fulfilled
COc1cc(/C=C/C(=O)/C=C/c2ccc(-n3ccnc3)cc2)ccc1O | Not fulfilled
O=C([CH-]C(=O)c1ccccc1)c1ccccc1.[CH2-]C.[CH2-]C.[Tl+3] | Fulfilled
N#Cc1cc2c(n(C3OC(CO)C(O)C(O)C3O)c1=S)CCC2 (stereo unspecified) | Fulfilled
COc1ccc(Nc2nc(N)c(C(=O)c3ccco3)s2)cc1 | Fulfilled

input: # bool: TGI of CCOC(=O)c1c(-c2ccc(Cl)cc2)c(C#N)c(=S)n(C2OC(COC(C)=O)C(OC(C)=O)C(OC(C)=O)C2OC(C)=O)c1C (stereo unspecified) >= 50 µM
output: Fulfilled

input: Does the compound `COC(=O)c1sc2c(Cl)c(Cl)sc2c1Cl` have recorded TGI that is 50 µM or more?
output: Fulfilled

input: Entry `c1ccc(-c2nc3ccccc3[nH]2)c(OCCCCCOc2ccccc2-c2nc3ccccc3[nH]2)c1` : is its TGI no less than 50 µM?
output: Not fulfilled

input: Is TGI at least 50 µM? Consider `c1csc(-c2cc(-c3ccsc3)cs2)c1`
output: Fulfilled

input: Exam item: decide whether the reported TGI for Nc1nc2c(ncn2C2OC(CO)C(O)C2O)c(=O)[nH]1 (stereo unspecified) is at least 50 µM.
output: Fulfilled

input: Entry CC1CC(C)(C)CC(OCCN2CCCCC2)(c2ccccc2)C1 (stereo unspecified) : is its TGI no less than 50 µM?
output: Not fulfilled

====

Give measured TGI for each item. Keep answers brief.
System: K-562 leukemia
Experiment: NCI tumour cell line growth inhibition, 48 h

Reference set, count: 5
O=[N+]([O-])C(/C=C(\Cl)[N+](=O)[O-])=C(Nc1ccccc1)Nc1ccccc1 | > 29.5 µM
CCOc1ccccc1NC(=O)C1=C(C)NC(C)=C(C(=O)Nc2ccccc2OCC)C1c1ccc2c(c1)OCO2 | 70.3 µM
Nc1ncnc2c1ncn2CCCNO | > 100 µM
O=C(O)c1cc2ccc(Cl)cc2c(O)c1C1=CCCCC1 | > 100 µM
CC(C)(C)C(=O)C(N)C(=O)C(C)(C)C | > 100 µM

Next up:
input: Please look at this molecule and report its TGI: COc1cc2ccc(C(C)NCC#N)cc2cc1OC (stereo unspecified)
output: > 100 µM
